assay: Stability and biodistribution of prodrugs in vivo (HPLC of plasma and tissues); set-up: species or system mice (CD-1 nude; BALB/C where indicated); conditions: mouse, small intestine, 50 mg/kg, SMALL INTESTINE, 30 min, 50 mg/kg i.p. or i.v., BALB/C mice; read-out: stability: percentage of material observed as intact prodrug, small intestine
Reported Metric: remaining at 0.5 h (%)
Report only the number, with the unit % understood.

Would you mind telling me what remaining at 0.5 h value was observed for CN(Cc1cnc2nc(N)nc(N)c2n1)c1ccc(C(=O)N[C@@H](CCC(=O)O)C(=O)N[C@@H](Cc2cccc(C3CCCC3)c2)C(=O)O)cc1 [Prodrug 9] ? 98

----------
assay: Stability and biodistribution of prodrugs in vivo (HPLC of plasma and tissues); parameters: species or system mice (CD-1 nude; BALB/C where indicated); conditions: mouse, feces, 50 mg/kg, FECES, 30 min, 50 mg/kg i.p. or i.v., CD-1 nude mice; read-out: stability: percentage of material observed as intact prodrug, feces (converted)
I'd appreciate it if you marked entries Fulfilled when remaining at 0.5 h is lower than 90% and Not fulfilled when it is not.

Previously resolved entries follow.
Molecule	Assigned Class
CN(Cc1cnc2nc(N)nc(N)c2n1)c1ccc(C(=O)N[C@@H](CCC(=O)O)C(=O)N[C@@H](Cc2ccccc2C2CCCC2)C(=O)O)cc1 [Prodrug 8]	Fulfilled
CN(Cc1cnc2nc(N)nc(N)c2n1)c1ccc(C(=O)N[C@@H](CCC(=O)O)C(=O)N[C@@H](Cc2cccc(C3CCCC3)c2)C(=O)O)cc1 [Prodrug 9]	Not fulfilled
CN(Cc1cnc2nc(N)nc(N)c2n1)c1ccc(C(=O)N[C@@H](CCC(=O)O)C(=O)N[C@@H](Cc2ccc(O)c(C3CCCC3)c2)C(=O)O)cc1 [Prodrug 13]	Not fulfilled
CN(Cc1cnc2nc(N)nc(N)c2n1)c1ccc(C(=O)N[C@@H](CCC(=O)O)C(=O)N[C@@H](CC(=O)O)C(=O)O)cc1 [Prodrug 6]	Fulfilled

Field: next molecule
Identify whether the molecule CN(Cc1cnc2nc(N)nc(N)c2n1)c1ccc(C(=O)N[C@@H](CCC(=O)O)C(=O)N[C@@H](Cc2cccc(C(C)(C)C)c2)C(=O)O)cc1 [Prodrug 12] records remaining at 0.5 h below 90%. Not fulfilled

----------
test: Stability and biodistribution of prodrugs in vivo (HPLC of plasma and tissues); design: species or system mice (CD-1 nude; BALB/C where indicated); details: CECUM, 120 min, 50 mg/kg i.p. or i.v., CD-1 nude mice
Reported Metric: concentration of prodrug in cecum (nmol/g)
Report only the number, with the unit nmol/g understood.

Example entries begin here.
Compound	Measurement Unit	concentration of prodrug in cecum
CN(Cc1cnc2nc(N)nc(N)c2n1)c1ccc(C(=O)N[C@@H](CCC(=O)O)C(=O)N[C@@H](Cc2ccc(O)c(C3CCCC3)c2)C(=O)O)cc1 [Prodrug 13]	nmol/g	4.8
CN(Cc1cnc2nc(N)nc(N)c2n1)c1ccc(C(=O)N[C@@H](CCC(=O)O)C(=O)N[C@@H](Cc2cccc(C3CCC3)c2)C(=O)O)cc1 [Prodrug 11]	nmol/g	0.8
CN(Cc1cnc2nc(N)nc(N)c2n1)c1ccc(C(=O)N[C@@H](CCC(=O)O)C(=O)N[C@@H](CC(=O)O)C(=O)O)cc1 [Prodrug 6]	nmol/g	0.8

Shift focus to the following entry.
Would you mind telling me what concentration of prodrug in cecum value was observed for Nc1nc(N)c(CCCNc2ccc(C(=O)N[C@@H](CCC(=O)O)C(=O)N[C@@H](Cc3cccc(C4CCCC4)c3)C(=O)O)cc2)c(=O)[nH]1 [Prodrug 14] ? 65.3

All figures here come from patent US6319702A.
